Reference source: patent US20230202973A1

subject of test: Cathepsin B (Homo sapiens, UniProt P07858)
assay notes: Activity test against cathepsin B (initial screen, Table 5)
Type: biochemical
Design: dose or concentration left out as unconfirmed
Parameter threshold = 30%. Response is Condition met when inhibition meets or exceeds it, else Condition not met.

INSERT INTO assay_data (compound, subject_of_test, group_label) VALUES
  ('CCCCC/C=C/C(=O)N[C@@H](Cc1ccc(O)cc1)C(=O)N[C@@H](/C=C/C(=O)O)CCCNC(=N)N [drawing 48]', 'Cathepsin B (Homo sapiens, UniProt P07858)', 'Condition not met'),
  ('CCCCC/C=C/C(=O)N[C@@H](Cc1ccc(O)cc1)C(=O)N[C@H](/C=C/C(=O)O)CCCNC(=N)N [drawing 45]', 'Cathepsin B (Homo sapiens, UniProt P07858)', 'Condition met'),
  ('CCCCC/C=C/C(=O)N[C@@H](Cc1ccccc1)C(=O)N[C@H](/C=C/C(=O)O)CCCNC(=N)N [drawing 47]', 'Cathepsin B (Homo sapiens, UniProt P07858)', 'Condition met'),
  ('CCCCC/C=C/C(=O)N[C@H](Cc1ccc(O)cc1)C(=O)N[C@H](/C=C/C(=O)O)CCCNC(=N)N [drawing 49]', 'Cathepsin B (Homo sapiens, UniProt P07858)', 'Condition not met'),
  ('CCCCC/C=C/C(=O)N[C@@H](Cc1ccc(O)cc1)C(=O)N[C@@H](/C=C/C(=O)O)CCCCN [drawing 46]', 'Cathepsin B (Homo sapiens, UniProt P07858)', 'Condition met');

====

subject of test: trypsin (Bos taurus)
Construct: purchased Thermo Fisher 23266
Sequence (P00760 24-246): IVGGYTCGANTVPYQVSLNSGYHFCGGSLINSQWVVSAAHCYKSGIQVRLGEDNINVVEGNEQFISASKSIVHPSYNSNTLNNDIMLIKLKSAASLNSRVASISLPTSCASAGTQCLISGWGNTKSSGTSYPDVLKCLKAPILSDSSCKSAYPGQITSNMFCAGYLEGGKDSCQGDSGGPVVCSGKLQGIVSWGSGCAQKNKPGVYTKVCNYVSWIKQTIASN
assay notes: Protease assay with azocasein: trypsin
Assay type: biochemical
test parameters: azocasein substrate, pH 7.2; n.i. = no inhibition
assay metric: Trypsin, inhibitory activity as IC50 value

INSERT INTO assay_data (molecule, result) VALUES
  ('CCCCC/C=C/C(=O)N[C@@H](Cc1ccc(O)cc1)C(=O)N[C@H](/C=C/C(=O)OCC)CCCN=C(N)N', 'n.i.'),
  ('CCCCCCCC(=O)N[C@@H](Cc1ccc(O)cc1)C(=O)N[C@@H](CCCNC(=N)N)CCC(=O)OC [(S), reference compound]', 'n.i.'),
  ('CCCCCCCC(=O)N[C@@H](Cc1ccc(O)cc1)C(=O)N[C@H](/C=C/C(=O)O)CCCNC(=N)N [17,18-Dihydrobarnesin (4), 17,18-Dihydrobarnesin]', 'n.i.'),
  ('CCCCCCCC(=O)N[C@@H](Cc1ccc(O)cc1)C(=O)N[C@@H](CCCNC(=N)N)CCC(=O)O [(R), 2,3,17,18-Tetrahydrobarnesin A, reference compound]', 'n.i.'),
  ('CCCCC/C=C/C(=O)N[C@@H](Cc1ccc(O)cc1)C(=O)N[C@H](/C=C/C(=O)O)CCCNC(=N)N', 'n.i.');
